Reference source: patent US12139520B2

target: hAM1R (human, UniProt Q16602); experiment: cell-based or functional assay
Numbered stars: 1 amine (or outer) side, 2 acyl side, 3 side chain; on linkers, the order of the positions; unused ones are H or OH. Bridge positions count the residues as written; N and C are the ends. Square brackets hold non-standard residues; d marks the D form. Ends that are not written are not given here. * marks the point of attachment. C20 diacid = O=C(O)CCCCCCCCCCCCCCCCCCC(=O)*; γGlu = O=C(O)[C@H](CCC(=O)[*:2])N[*:1]; Hyp = O=C(O)[C@@H]1C[C@@H](O)CN1
assay-metric: hAM1R EC50 (cAMP) (µM)
Use µM as the unit, but write only the number.

{C20 diacid-γGlu}-GCRFGTCTVQRLAHFLYQFTDKDKDNVAPRTKVGSNGY-NH2 (disulfide 2-7 (inferred); ends not checked) [SEQ ID NO: 223] ... 0.0477

Exercise: // query hAM1R EC50 (cAMP) value for entry GCRTGTCTVQRLAHQIYQFTDKDKDNVAPRTNVSPQGY [SEQ ID NO: 176]
Key: 2.98

Exercise: Follow-up item: GCRTGTCTVQRLAHQIYQFTDKDKDNVAPRSNVSPNG[Hyp]-NH2 (disulfide 2-7 (inferred); ends not checked) [SEQ ID NO: 166]
Key: 2.98

Exercise: Entry to check: GCRFGTCTVQRLAHQIYQFTDKDKDNVAPRTKISPNGY [SEQ ID NO: 371]
Key: 0.00303

Exercise: Okay, and GCRTGTCTVQRLAHQIYQFTDKDKDNVAPRTKVSPQGY [SEQ ID NO: 209] ?
Key: 1.02

Exercise: Also need GCRFGTCTVQRLAHFLYQFTDKDKDNVAPRTNIGPQGY [SEQ ID NO: 364] , thanks.
Key: 0.0136

Exercise: Same again, this time with GCRFGTCTVQRLAHQIYQFTDKDKDNVAPRSKVGPQGY [SEQ ID NO: 375]
Key: 0.000403
